Conditions: in toluene, 304.75 K

| test-smiles | solubility (mole fraction) |
| --- | --- |
| Nc1ccc(Sc2ccc([N+](=O)[O-])cc2)cc1 | 0.0283 |

* * *

Details: in n-butanol, 312.35 K
measured-attribute: solubility (mole fraction)

| test-smiles | measured-attribute | measurement |
| --- | --- | --- |
| Nc1ccc(Sc2ccc([N+](=O)[O-])cc2)cc1 | solubility (mole fraction) | 0.005 |

* * *

Settings: in chlorobenzene, 306.25 K

| test-smiles | solubility (mole fraction) |
| --- | --- |
| Nc1ccc(Sc2ccc([N+](=O)[O-])cc2)cc1 | 0.019 |

* * *

Conditions: in ethyl acetate, 318.25 K

| test-smiles | solubility (mole fraction) |
| --- | --- |
| Nc1ccc(Sc2ccc([N+](=O)[O-])cc2)cc1 | 0.0911 |

* * *

Details: in dichloromethane, 293.75 K

| test-smiles | solubility (mole fraction) |
| --- | --- |
| Nc1ccc(Sc2ccc([N+](=O)[O-])cc2)cc1 | 0.0299 |

* * *

Details: in n-butanol, 292.55 K
measured-attribute: solubility (mole fraction)

| test-smiles | measurement |
| --- | --- |
| Nc1ccc(Sc2ccc([N+](=O)[O-])cc2)cc1 | 0.0018 |

* * *

Conditions: in chlorobenzene, 311.35 K

| test-smiles | solubility (mole fraction) |
| --- | --- |
| Nc1ccc(Sc2ccc([N+](=O)[O-])cc2)cc1 | 0.0225 |

* * *

Settings: in toluene, 314.55 K

| test-smiles | solubility (mole fraction) |
| --- | --- |
| Nc1ccc(Sc2ccc([N+](=O)[O-])cc2)cc1 | 0.0385 |

* * *

Settings: in chloroform, 293.55 K

| test-smiles | solubility (mole fraction) |
| --- | --- |
| Nc1ccc(Sc2ccc([N+](=O)[O-])cc2)cc1 | 0.0264 |

* * *

Settings: in ethyl acetate, 300.45 K

| test-smiles | solubility (mole fraction) |
| --- | --- |
| Nc1ccc(Sc2ccc([N+](=O)[O-])cc2)cc1 | 0.063 |

* * *

Conditions: in dichloromethane, 297.15 K

| test-smiles | solubility (mole fraction) |
| --- | --- |
| Nc1ccc(Sc2ccc([N+](=O)[O-])cc2)cc1 | 0.0339 |

* * *

Conditions: in chloroform, 288.35 K
measured-attribute: solubility (mole fraction)

| test-smiles | measurement |
| --- | --- |
| Nc1ccc(Sc2ccc([N+](=O)[O-])cc2)cc1 | 0.0218 |

* * *

Settings: in n-butanol, 297.75 K
measured-attribute: solubility (mole fraction)

| test-smiles | measured-attribute | measurement |
| --- | --- | --- |
| Nc1ccc(Sc2ccc([N+](=O)[O-])cc2)cc1 | solubility (mole fraction) | 0.0024 |

* * *

Conditions: in chloroform, 309.25 K
measured-attribute: solubility (mole fraction)

| test-smiles | measurement |
| --- | --- |
| Nc1ccc(Sc2ccc([N+](=O)[O-])cc2)cc1 | 0.0433 |

* * *

Conditions: in n-butanol, 322.25 K

| test-smiles | solubility (mole fraction) |
| --- | --- |
| Nc1ccc(Sc2ccc([N+](=O)[O-])cc2)cc1 | 0.0081 |

* * *

Conditions: in n-butanol, 317.55 K
measured-attribute: solubility (mole fraction)

| test-smiles | measured-attribute | measurement |
| --- | --- | --- |
| Nc1ccc(Sc2ccc([N+](=O)[O-])cc2)cc1 | solubility (mole fraction) | 0.0061 |

* * *

Details: in chlorobenzene, 316.65 K

| test-smiles | solubility (mole fraction) |
| --- | --- |
| Nc1ccc(Sc2ccc([N+](=O)[O-])cc2)cc1 | 0.0275 |
